- Tested on: HCT-116 colon
- Assay protocol: NCI-60 one-dose screen, 48 h (100 = growth as untreated, 0 = no growth, -100 = all killed)
- Assay setup: 10 µM unless noted
- Procedure: Growth inhibition of the HCT-116 human tumor cell line is measured as a screen for anti-cancer activity. Cells are grown in 96 well plates and exposed to the test compound for 48 hours. Compounds are tested at a single concentration, which is 10^-5 M for most compounds. The reported endpoint is percent growth (GI% or GIPRCNT), where numbers from 0 - 100% represent growth inhibition, and numbers from -100% - 0 represent cell death. For example, a value of 40 represents 60% growth inhibition. […]
About 83,000 compounds went through this panel and 20% of them were active in at least one assay; those are over-represented in the sample as a whole.
Measurement name: growth (%)
Number in %, nothing else.

{"columns": ["Compound", "Result unit", "growth"],
 "data": [
  ["CC(=O)OC[C@@]1(C)C2CC[C@]3(C)C(CC=C4C5CC(C)(C)CC[C@]5(C(=O)Nc5cccc(C)c5)CC[C@]43C)[C@@]2(C)C[C@@H](OC(C)=O)[C@@H]1OC(C)=O (some centres undefined)", "%", 21.8],
  ["COc1cc(-c2ccc(/C=N/NC(=O)c3[nH]c4ccc(Br)cc4c3-c3ccccc3)s2)cc(OC)c1OC", "%", 68.2],
  ["COc1ccc(CCC2c3c(cc4c(c3OC)OCO4)CCN2C)cc1 (centres undefined)", "%", -58.3],
  ["O=[N+]([O-])c1ccc(/C=C/c2nc3ccccc3n3c(=S)[nH]nc23)cc1", "%", 70.6],
  ["COc1ccc(C(=O)/C=C/c2ccc(OCc3ccc(F)cc3)c(OC)c2)cc1OC", "%", 8.63],
  ["CC(C)CSc1nc(NCCc2c[nH]c3ccccc23)c(C#N)c(-c2ccccc2)n1", "%", 11.6]
]}

Okay, next one:
Please look up its growth: COc1c(F)ccc(C(=O)Nc2ccc3nc(NC(=O)C4CCCN(S(=O)(=O)c5ccc(Br)c(F)c5)C4)sc3c2)c1F (centres undefined)
62.7

----------
- Tested on: KM12 colon
- Assay protocol: NCI-60 one-dose screen, 48 h (100 = growth as untreated, 0 = no growth, -100 = all killed)
- Assay setup: 10 µM unless noted
Compounds without any hit were thinned out: in the full panel of roughly 83,000, 20% have a hit.
Mark Satisfied for growth under 30%, Not satisfied if at or over.

Take a look at these entries with their results.
{"columns": ["Molecule", "Answer label"],
 "data": [
  ["COc1cc(C2CC(c3cc(OC)c(OC)c(OC)c3)=Nc3c(N)nc(N)nc3N2)ccc1Oc1nc(NCCO)nc(N2CCOCC2)n1 (centres undefined)", "Not satisfied"],
  ["O=C1CC(Sc2n[nH]c(-c3ccncc3)n2)C(=O)N1c1ccc(Br)cc1 (centres undefined)", "Not satisfied"],
  ["O=[N+]([O-])c1ccc(/C=C/c2nc3ccccc3n3c(=S)[nH]nc23)cc1", "Not satisfied"],
  ["CC(C)CSc1nc(NCCc2c[nH]c3ccccc23)c(C#N)c(-c2ccccc2)n1", "Not satisfied"],
  ["Cn1cc(NC(=O)c2cc(NC(=O)c3ccc(/C=C/c4ccccc4)cc3)cn2C)cc1C(=O)NCCCN1CCOCC1", "Satisfied"]
]}

I'd appreciate it if you could check whether COc1ccc(NC(=O)Cn2c(O)c(N=Nc3ccc(S(N)(=O)=O)cc3)c3ccccc32)cc1 has growth smaller than 30%.
Satisfied

Is the reported growth for Cc1cc(=O)oc2cc(OCCCCOc3ccc(/C=C/C(=O)Nc4ccccc4N)cc3)ccc12 strictly below 30%?
Not satisfied

A record lists COc1ccc(C(=O)Nc2n[nH]c(Nc3ccccc3)c2C#N)cc1 . Is its growth below 30%?
Not satisfied

Find out if reported growth for O=C1c2c(c3c4cc(F)ccc4oc3c3[nH]c4ccc(Br)cc4c23)C(=O)N1O is less than 30%
Not satisfied
